- target_under_test: Prostaglandin G/H synthase 1 (Homo sapiens, UniProt P23219)
- Sequence (P23219 whole entry): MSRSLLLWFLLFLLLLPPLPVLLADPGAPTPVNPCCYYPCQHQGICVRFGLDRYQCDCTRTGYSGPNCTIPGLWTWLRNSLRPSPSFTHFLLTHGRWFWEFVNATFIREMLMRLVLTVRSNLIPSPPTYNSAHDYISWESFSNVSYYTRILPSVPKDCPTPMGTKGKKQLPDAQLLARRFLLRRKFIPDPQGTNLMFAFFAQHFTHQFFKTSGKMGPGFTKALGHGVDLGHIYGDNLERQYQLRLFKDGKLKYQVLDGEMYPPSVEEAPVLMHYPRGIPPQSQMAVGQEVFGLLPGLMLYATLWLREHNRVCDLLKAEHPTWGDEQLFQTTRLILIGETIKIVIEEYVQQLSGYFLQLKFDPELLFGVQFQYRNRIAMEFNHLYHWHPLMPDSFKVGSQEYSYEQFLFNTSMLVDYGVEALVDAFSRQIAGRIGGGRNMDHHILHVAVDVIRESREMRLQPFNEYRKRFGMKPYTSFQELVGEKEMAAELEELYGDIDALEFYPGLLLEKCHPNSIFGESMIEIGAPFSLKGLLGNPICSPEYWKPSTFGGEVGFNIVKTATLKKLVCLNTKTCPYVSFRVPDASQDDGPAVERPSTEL
- assay: Inhibition of COX-1 in human OVCAR3 cells assessed as [14C] arachidonic acid remaining using [14C] arachidonic acid as substrate preincubated for 30 mins followed by substrate addition measured after 30 mins
property_name: IC50 (nM)
Answer with a number only, understood to be in nM.

I have this molecule here, COc1ccc(-n2nc(CCC(=O)NCCCCNC(=O)c3ccc(C4=c5cc6c7c(c5Oc5c4cc4c8c5CCCN8CCC4)CCC[N+]=7CCC6)c(C(=O)[O-])c3)cc2-c2ccc(C)cc2)cc1 , and I need its recorded IC50.
44

----------
- target_under_test: Prostaglandin G/H synthase 1 (Ovis aries)
- Sequence (P05979 whole entry): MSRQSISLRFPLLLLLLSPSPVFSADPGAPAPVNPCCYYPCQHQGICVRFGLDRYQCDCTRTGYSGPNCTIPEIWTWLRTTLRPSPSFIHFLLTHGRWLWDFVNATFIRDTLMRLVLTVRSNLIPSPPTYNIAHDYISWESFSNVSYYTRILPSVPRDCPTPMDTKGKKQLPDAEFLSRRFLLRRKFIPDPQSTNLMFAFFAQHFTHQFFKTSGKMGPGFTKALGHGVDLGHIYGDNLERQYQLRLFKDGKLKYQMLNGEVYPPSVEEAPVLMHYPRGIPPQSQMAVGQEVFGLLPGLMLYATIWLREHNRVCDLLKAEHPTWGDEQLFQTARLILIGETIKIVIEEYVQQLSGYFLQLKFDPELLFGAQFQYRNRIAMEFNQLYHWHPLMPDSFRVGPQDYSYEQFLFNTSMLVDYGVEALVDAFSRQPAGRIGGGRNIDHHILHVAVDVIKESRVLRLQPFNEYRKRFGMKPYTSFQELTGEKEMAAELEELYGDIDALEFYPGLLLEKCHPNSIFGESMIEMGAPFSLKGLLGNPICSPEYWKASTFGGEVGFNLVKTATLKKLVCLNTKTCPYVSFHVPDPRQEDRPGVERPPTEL
property_name: IC50 (nM)
Answer with a number only, understood to be in nM.

Please tell me: IC50 of COc1ccc(-n2nc(CCC(=O)NCCCCNC(=O)c3ccc(C4=c5cc6c7c(c5Oc5c4cc4c8c5CCCN8CCC4)CCC[N+]=7CCC6)c(C(=O)[O-])c3)cc2-c2ccc(C)cc2)cc1 , system Prostaglandin G/H synthase 1 (Ovis aries)?
94

// provenance: ChEMBL document CHEMBL4725426
